System under test: T1, WER L59A (Arabidopsis, UniProt Q9SEI0 12-130, L59A)
T1 sequence: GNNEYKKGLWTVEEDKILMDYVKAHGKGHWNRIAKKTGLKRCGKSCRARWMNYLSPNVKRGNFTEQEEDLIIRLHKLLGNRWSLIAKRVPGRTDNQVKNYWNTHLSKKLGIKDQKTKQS
Test method notes: ITC; ITC: 150 mM NaCl, 20 mM HEPES pH 7.5, 25 C, 400 uM protein into 20 uM DNA; EMSA: 150 mM NaCl, 20 mM Tris-HCl pH 8.0, on ice 1 h, 0.1 uM DNA, 6% native PAGE 0.5x TBE
Experimental parameters: protein: recombinant; tags: 6xHis-SUMO removed by Ulp1; blunt
Recorded metric: binding result

5mC12 DNA (AA5mC) (dsDNA, 5mC at C12 of strand 1) DNA 1: AAATTCTCCAACCGCATTTTC DNA 2: GAAAATGCGGTTGGAGAATTT    binds
T12:A11* (dsDNA) DNA 1: AAATTCTCCAATCGCATTTTC DNA 2: GAAAATGCGATTGGAGAATTT    binds
G12:C11* (dsDNA) DNA 1: AAATTCTCCAAGCGCATTTTC DNA 2: GAAAATGCGCTTGGAGAATTT    binds
A12:T11* (dsDNA) DNA 1: AAATTCTCCAAACGCATTTTC DNA 2: GAAAATGCGTTTGGAGAATTT    binds
